System: HSV-1
TEST: HSV-1 replication in Vero 76 cells, DNA hybridization capture assay
Type: cell-based, herpes simplex virus 1
RECORDED_CONDITIONS: Human alphaherpesvirus 1; HSV-1 infected Vero 76 cells, MOI=0.001, 40–48 hours incubation, viral DNA detected by hybridization/chemiluminescence
MEASURED_ENDPOINT: pIC50
Numbers only, as −log10 of the molar value.

Previously resolved entries follow.
COMPOUND_STRUCTURE | MEASURED_NUMBER
Cc1ccc(-c2nc3c(NC4CCCC4)cccn3c2-c2ccnc(Nc3ccccc3)n2)cc1 | 5.45
Cc1ccc(-c2nc3c(Cl)cccn3c2-c2ccnc(Nc3ccccc3)n2)cc1 | 5.45
COc1cccc(-c2nc3c(Cl)cccn3c2-c2ccnc(Nc3ccccc3)n2)c1 | 5.84
COc1cccc(-c2nc3c(NC4CCCC4)cccn3c2-c2ccnc(NC3CCCC3)n2)c1 | 6.46

As a next step, examine the compound that follows.
Exercise: Report pIC50 for O=[N+]([O-])c1cccc(-c2nc3c(Cl)cccn3c2-c2ccnc(Nc3ccc(F)cc3)n2)c1 please.
Key: 5.65
